// koff lookup, one value per entry
target: T1, human mesothelin (human, UniProt Q13421 296-580, limits assumed); test: SPR
T1 construct: also called Human MSLN
T1 sequence (Q13421 other isoform, or with tags, fused parts or gaps limits assumed): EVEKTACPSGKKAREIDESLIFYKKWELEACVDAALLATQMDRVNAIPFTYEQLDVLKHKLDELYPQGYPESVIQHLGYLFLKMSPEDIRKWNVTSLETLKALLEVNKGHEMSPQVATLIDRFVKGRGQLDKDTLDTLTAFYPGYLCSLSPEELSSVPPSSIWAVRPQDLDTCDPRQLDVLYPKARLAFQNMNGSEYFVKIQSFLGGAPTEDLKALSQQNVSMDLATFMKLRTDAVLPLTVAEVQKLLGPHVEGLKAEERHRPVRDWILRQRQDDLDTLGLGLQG
Hi! Could you send only the number? It should be in s⁻¹, unit omitted.

| binder | observed value |
| --- | --- |
| HuAM6 (antibody, V domains shown, fully human antibody) VH: EVQLVQSGAEVKKPGASVKVSCKASGDTFNRYYVHWVRQAPGQGLEWMGIINPSGVSTTYAQKFQGRVTMTRDTSTSTVYMELSSLRSEDTAVYYCAESRVPGYNNFAMDVWGQGTLVTVSS VL: SYELTQPPSVSVSPGQTASITCSGDKLGDKYASWYQQKPGQSPVLVIYQDNRRPSGIPERFSGSNSGNTATLTISGTQAMDEADYYCQAWDSDTYVFGTGTKVTVL | 2.4e-05 |

Entry HuAM15 (antibody, V domains shown, fully human antibody) VH: EVQLVQSGAEVKKPGASVKVSCKASGDTFKRYYVHWVRQAPGQGLEWMGIINPSGVSTTYAQKFQGRVTMTRDTSTSTVYMELSSLRSEDTAVYYCAEVRGSGFNYFGMDVWGQGTLVTVSS VL: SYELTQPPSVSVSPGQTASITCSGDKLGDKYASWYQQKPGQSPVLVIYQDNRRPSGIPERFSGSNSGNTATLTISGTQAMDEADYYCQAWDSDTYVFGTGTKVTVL has what koff?
1.3e-05

meta.source: patent US20180194862A1
